pKi: −log10 of the molar value.
For Carbonic anhydrase 1 (Homo sapiens, UniProt P00915), measured pKi is reported for the entries below.

In the examples that follow, each entry is paired with its recorded pKi.
// query Kindly state the measured pKi obtained for NS(=O)(=O)c1ccc(Nc2ccnc(SCC(=O)c3ccc(-c4ccccc4)cc3)n2)cc1 with Carbonic anhydrase 1 (Homo sapiens, UniProt P00915).
Sequence (P00915 whole entry): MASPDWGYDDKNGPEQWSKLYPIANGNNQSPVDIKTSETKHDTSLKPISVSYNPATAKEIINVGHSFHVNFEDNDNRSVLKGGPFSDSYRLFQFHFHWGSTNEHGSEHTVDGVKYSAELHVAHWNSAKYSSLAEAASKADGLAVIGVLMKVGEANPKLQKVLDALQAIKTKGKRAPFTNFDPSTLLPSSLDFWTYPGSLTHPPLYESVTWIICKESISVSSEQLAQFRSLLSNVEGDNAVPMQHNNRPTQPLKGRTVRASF
// result < 4.00

// query Any idea what pKi came out for COc1ccc(C(=O)CSc2nccc(Nc3ccc(S(=O)(=O)Nc4ncccn4)cc3)n2)cc1 on Carbonic anhydrase 1 (Homo sapiens, UniProt P00915)?
// result < 4.00

Alright, here's another compound for you.
// query Please provide the recorded pKi for Cc1cc(NS(=O)(=O)c2ccc(Nc3ccnc(SCC(=O)c4ccc(F)cc4)n3)cc2)no1 , tested on Carbonic anhydrase 1 (Homo sapiens, UniProt P00915).
// result < 4.00
